Recorded TGI values for a group of compounds are listed next.
system: OVCAR-5 ovarian; assay: NCI tumour cell line growth inhibition, 48 h

- compound: "CC1=Nc2ccccc2S/C1=C1/C=NC(=NC#N)N=C1C(=O)Nc1cccc(Cl)c1"
  measuredResult: "> 100 µM"

Give its TGI value. Item: "O=C(O)CN(CCN(CC(=O)O)CC(=O)O)CC(=O)O.[Cu+2].[Na+]" > 100 µM

Give its TGI value. Item: "O=C(Cn1c(=O)oc2ccccc21)N(c1ccccc1)c1ccccc1" > 100 µM

Give its TGI value. Item: "CO[C@H]1C[C@H](O[C@H]2CC[C@@]3(C)[C@H](CC[C@@H]4[C@@H]3CC[C@]3(C)[C@@H](C5=CC(=O)OC5)CC[C@]43O)C2)O[C@H](C)[C@H]1O" 0.0896 µM

Give its TGI value. Item: O=C(CC1(O)C(=O)Nc2ccc(Cl)cc21)c1ccc(C(=O)NCC2CCC3(CC2)OOC2(CCCCC2)OO3)cc1 (centres undefined) 30.9 µM

Give its TGI value. Item: "Cc1c2ccncc2c(C)c2c1[nH]c1ccc(O)cc12" 0.831 µg/mL

Give its TGI value. Item: CCOC(=O)C(=O)CC(=O)C(Br)C(Br)c1ccc(Cl)cc1 (centres undefined) > 100 µM

These measurements were taken from PubChem BioAssay (NCI).
